test: Human HepG2 cell viability assay in 384 well format; type: toxicity, cell-based; parameters: dose 125 nL, time 70.5 hour; concentration not given beside the values; conditions: HepG2 cells, read-out: Inhibition
Entries and their measured cytotoxicity at 70.5 h follow.
Respond numerically; units are % and should not be typed.

CN(C)C(=O)COC[C@@]12CCC[C@@H]1CNC2: -13.5

Consider the compound shown here: CC(C)c1ncc2c(n1)CN(Cc1ccc(C(N)=O)cc1)CC2 What is its recorded cytotoxicity at 70.5 h? 24.1

Consider the compound shown here: CCC(CC)(CC(=O)OC)NC(=O)Nc1nnc(-c2ccccn2)s1 What is its recorded cytotoxicity at 70.5 h? 9.93

====

experiment: Human HepG2 cell viability assay in 384 well format; type: toxicity, cell-based; design: dose 125 nL, time 70.5 hour; concentration not given beside the values; conditions: HepG2 cells, read-out: Inhibition
measure: cytotoxicity at 70.5 h (%)
Respond numerically; units are % and should not be typed.

Cc1nc(CCNC(=O)NC(C)c2ccc3c(c2)OCCO3)cs1 (configuration not stated): -3.72
CN(C)c1ccc(CN2C[C@H]3CC[C@@H]2CN(C2CCOCC2)C3)cn1: -3.42
Cc1nnc(N2CC[C@H](OCC3CC3)[C@@H](Cc3ccccc3)C2)s1: 11.8
Cc1ccnn1CCC(=O)N1CCCC2(C1)NC(=O)c1ccccc1O2 (configuration not stated): -2.25
Cc1ccc(N2CC[C@H]3OCC[C@@]3(C(=O)NCC3CC3)C2)nn1: -7.61

Consider the molecule shown here: CC1CCC(N2CCC(NS(=O)(=O)CCCF)CC2)CC1 (configuration not stated) What is its recorded cytotoxicity at 70.5 h? 7.59

Consider the molecule shown here: CCOc1ccc(CN2CC[C@](C)(O)C(C)(C)C2)cn1 What is its recorded cytotoxicity at 70.5 h? -1.38

Consider the molecule shown here: Cc1cccc(CN2CCc3c(nc(N4CCC(C)CC4)[nH]c3=O)C2)n1 What is its recorded cytotoxicity at 70.5 h? -9.37

Consider the molecule shown here: COCc1c(C(=O)N2CCCC(N(C)Cc3ccccc3)C2)noc1C (configuration not stated) What is its recorded cytotoxicity at 70.5 h? -3.62

Consider the molecule shown here: Cc1cc(C(=O)NC2CCCOc3cc(Cl)ccc32)n(C)n1 (configuration not stated) What is its recorded cytotoxicity at 70.5 h? -5.69

====

assay: Human HepG2 cell viability assay in 384 well format; type: toxicity, cell-based; set-up: dose 125 nL, time 70.5 hour; concentration not given beside the values; settings: HepG2 cells, read-out: Inhibition
Entries and their measured cytotoxicity at 70.5 h follow.
Respond numerically; units are % and should not be typed.

Below: 8 molecules and their reported cytotoxicity at 70.5 h.
O=C(O)[C@]12CCCN(Cc3ccncc3)[C@@H]1CCN(c1cnccn1)C2: 8.46
CNC(=O)[C@@]12CCC3(CCN(C(=O)C(C)C)CC3)[C@@H]1CN(S(C)(=O)=O)C2: 2.4
Cc1nc(CC(=O)N2CCCN(c3ccc(F)cc3)CC2)cs1: -3.38
O[C@@H]1CN(Cc2cc(Cl)cc3cccnc23)C[C@@H]1O: -4.72
O=C(c1ccncc1)N1CC[C@H]2[C@H]1CCN2S(=O)(=O)C1CC1: -5.53
CCOC(=O)CN1CC(c2nc(-c3ccsc3)no2)C1: 0.957
Cc1ccc(C(=O)NCC(O)c2cccc(F)c2)c(=O)[nH]1 (centres undefined): -0.0981
COc1ccc(-c2ccc(C(=O)O)c(F)c2)c(F)c1: 27.5

Consider the molecule shown here: Cc1cc(C(=O)N2CC[C@@H]3CO[C@@H](CN4CCCC4)[C@@H]3C2)no1 What is its recorded cytotoxicity at 70.5 h? -7.99

Consider the molecule shown here: CN(C)S(=O)(=O)N1CCCCC1CCc1ccc(O)cc1 (centres undefined) What is its recorded cytotoxicity at 70.5 h? -6.59

Consider the molecule shown here: NCCC(=O)Nc1ccc(-c2ccccc2)cc1 What is its recorded cytotoxicity at 70.5 h? -5.02

Consider the molecule shown here: Cc1cccc2[nH]c(COCC(=O)N3CCCn4cncc4C3)nc12 What is its recorded cytotoxicity at 70.5 h? -6.34

Consider the molecule shown here: Cc1occc1CN(C)C(=O)Nc1ccc(=O)n(C)c1 What is its recorded cytotoxicity at 70.5 h? -7.93
